Below, each of the compounds is paired with its reported MIC80 value.
# Test system: Nakaseomyces glabratus
# Experimental protocol: Antifungal activity against Clinical isolate Candida glabrata assessed as inhibition of visible growth
# Assay type: functional
Express your answer in µg/mL, writing the number without its unit.

CN(Cc1ccc(-c2ccc(C(C)(C)C)cc2)cn1)CC(O)(Cn1cncn1)c1ccc(F)cc1F (stereo not given) ... 0.2
COc1ccc(-c2ccc(CN(C)CC(O)(Cn3cncn3)c3ccc(F)cc3F)nc2)cc1 (stereo not given) ... 0.4
[2H]C([2H])([2H])N(Cc1ccc(-c2ccc(Cl)c(F)c2)nc1)[C@H](C)[C@](O)(Cn1cncn1)c1ccc(F)cc1F ... 0.012
CN(Cc1ccc(-c2ccc(F)cc2)cn1)CC(O)(Cn1cncn1)c1ccc(F)cc1F (stereo not given) ... 0.4

Now for a further compound.
I have this compound here, CN(Cc1cnc(-c2ccc(OC(F)(F)F)cc2)s1)CC(O)(Cn1cncn1)c1ccc(F)cc1F (stereo not given) , and I need its recorded MIC80.
0.2

----------
# System: Nakaseomyces glabratus
# Experimental protocol: Antifungal activity against Clinical isolate Candida glabrata assessed as inhibition of visible growth
# Type: functional
Label MET when MIC80 is strictly below 0.1 µg/mL; at or above that, label NOT MET.

Example cases with answers are listed next.
CN(Cc1ccc(-c2ccc(Cl)c(F)c2)cc1)CC(O)(Cn1cncn1)c1ccc(F)cc1F (configuration not stated) ... MET
[2H]C([2H])([2H])N(Cc1ccc(-c2ccc(Cl)c(F)c2)cc1)[C@H](C)[C@](O)(Cn1cncn1)c1ccc(F)cc1F ... MET
CN(Cc1cnc(-c2ccc(Cl)cc2)s1)CC(O)(Cn1cncn1)c1ccc(F)cc1F (configuration not stated) ... NOT MET
OC(Cn1cncn1)(Cn1cncn1)c1ccc(F)cc1F [FLUCONAZOLE] ... NOT MET
CN(Cc1ccc(-c2ccc(Cl)cc2)c(F)c1)CC(O)(Cn1cncn1)c1ccc(F)cc1F (configuration not stated) ... MET

In the record for CN(Cc1ccc(-c2ccc(OC(F)(F)F)cc2)cn1)CC(O)(Cn1cncn1)c1ccc(F)cc1F (configuration not stated) , is MIC80 less than 0.1 µg/mL?
MET

Request: CN(Cc1ccc(-c2ccc(C(F)(F)F)cc2)nc1)CC(O)(Cn1cncn1)c1ccc(F)cc1F (configuration not stated)
NOT MET

Request: CN(Cc1ccc(-c2ccc(OC(F)(F)F)cc2)cc1)CC(O)(Cn1cncn1)c1ccc(F)cc1F (configuration not stated)
MET

----------
# Test system: Cryptococcus neoformans
# Experimental protocol: Antifungal activity against Cryptococcus neoformans CGMCC 2.3161 assessed as inhibition of visible growth
# Format: functional
Label Fulfilled when MIC80 is strictly below 0.03 µg/mL; at or above that, label Not fulfilled.

In the record for CN(Cc1ccc(-c2ccc(C(F)(F)F)cc2)o1)CC(O)(Cn1cncn1)c1ccc(F)cc1F (stereo unspecified) , is MIC80 less than 0.03 µg/mL?
Not fulfilled

Request: C[C@@H](N(C)Cc1ccc(-c2ccc(Cl)cc2)cc1)[C@](O)(Cn1cncn1)c1ccc(F)cc1F
Fulfilled

Request: OC(CN(Cc1ccc(-c2ccc(Cl)cc2)cc1)C1CC1)(Cn1cncn1)c1ccc(F)cc1F (stereo unspecified)
Not fulfilled

----------
# Tested on: Cryptococcus neoformans
# Experimental protocol: Antifungal activity against Cryptococcus neoformans CGMCC 2.3161 assessed as inhibition of visible growth
# Format: functional
Below, each of the compounds is paired with its reported log10 MIC80 value.
Scale: log10; quantity: MIC80; unit before log: µg/mL

// below: answered compounds
OC(Cn1cncn1)(Cn1cncn1)c1ccc(F)cc1F ... 1.20
CN(Cc1ccc(-c2ccc(Cl)cc2F)cc1)CC(O)(Cn1cncn1)c1ccc(F)cc1F (centres undefined) ... -1.92

I have this compound here, CN(Cc1ccc(-c2ccc(Cl)cc2)s1)CC(O)(Cn1cncn1)c1ccc(F)cc1F (centres undefined) , and I need its recorded log10 MIC80.
-1.00

Request: CN(Cc1ccc(-c2ccc(Cl)cc2)c(F)c1)CC(O)(Cn1cncn1)c1ccc(F)cc1F (centres undefined)
-1.92

Request: CN(Cc1nc(-c2ccc(Cl)cc2)cs1)CC(O)(Cn1cncn1)c1ccc(F)cc1F (centres undefined)
-0.10

Request: [2H]C([2H])([2H])N(Cc1ccc(-c2ccc(Cl)cc2F)nc1)[C@H](C)[C@](O)(Cn1cncn1)c1ccc(F)cc1F
-1.92

----------
Below, each of the molecules is paired with its reported MIC80 value.
# Tested on: Nakaseomyces glabratus
# Experimental protocol: Antifungal activity against Clinical isolate Candida glabrata assessed as inhibition of visible growth
# Assay type: functional
Express your answer in µg/mL, writing the number without its unit.

[2H]C([2H])([2H])N(Cc1ccc(-c2ccc(Cl)cc2F)cc1F)[C@H](C)[C@](O)(Cn1cncn1)c1ccc(F)cc1F ... 0.025
CN(Cc1ccc(-c2ccc(OCC(F)(F)F)cc2)cn1)CC(O)(Cn1cncn1)c1ccc(F)cc1F (centres undefined) ... 0.1

For Nakaseomyces glabratus, provide MIC80 of [2H]C([2H])([2H])N(Cc1ccc(-c2ccc(Cl)cc2)nc1)[C@H](C)[C@](O)(Cn1cncn1)c1ccc(F)cc1F please.
0.012

----------
# System: Nakaseomyces glabratus
# Experimental protocol: Antifungal activity against Clinical isolate Candida glabrata assessed as inhibition of visible growth
# Format: functional
Below, each of the molecules is paired with its reported log10 of MIC80 value.
Scale: log10; quantity: MIC80; unit before log: µg/mL

I have this molecule here, O[C@@](Cn1cnnn1)(c1ccc(F)cc1F)C(F)(F)c1ccc(-c2ccc(OCC(F)(F)F)cc2)cn1 , and I need its recorded log10 of MIC80.
-1.00

Request: [2H]C([2H])([2H])N(Cc1ccc(-c2ccc(Cl)cc2F)nc1)[C@H](C)[C@](O)(Cn1cncn1)c1ccc(F)cc1F
-1.92

Request: CN(Cc1ccc(-c2cccc(Cl)c2)cn1)CC(O)(Cn1cncn1)c1ccc(F)cc1F (centres undefined)
-0.70

Request: [2H]C([2H])([2H])N(Cc1ccc(-c2ccc(Cl)cc2)c(F)c1)[C@H](C)[C@](O)(Cn1cncn1)c1ccc(F)cc1F
-1.60

Request: [2H]C([2H])([2H])N(Cc1ccc(-c2ccc(OC(F)(F)F)cc2)cc1)[C@H](C)[C@](O)(Cn1cncn1)c1ccc(F)cc1F
-1.92

----------
# Tested on: Cryptococcus neoformans
# Experimental protocol: Antifungal activity against Cryptococcus neoformans CGMCC 2.3161 assessed as inhibition of visible growth
# Assay type: functional
Value kind: log10 MIC80 (log10 of the value in µg/mL)
Scale: log10; quantity: MIC80; unit before log: µg/mL

CN(Cc1ccc(-c2ccccc2F)cn1)CC(O)(Cn1cncn1)c1ccc(F)cc1F (stereo not drawn) ... -1.00
CN(Cc1ccc(-c2ccc(Cl)cc2)o1)CC(O)(Cn1cncn1)c1ccc(F)cc1F (stereo not drawn) ... -0.40
CN(Cc1ccc(-c2ccc(Cl)c(F)c2)cc1)CC(O)(Cn1cncn1)c1ccc(F)cc1F (stereo not drawn) ... -1.92

I have this molecule here, CN(Cc1ccc(-c2ccc(OC(F)(F)F)cc2)cn1)CC(O)(Cn1cncn1)c1ccc(F)cc1F (stereo not drawn) , and I need its recorded log10 MIC80.
-1.60

Request: [2H]C([2H])([2H])N(Cc1ccc(-c2ccc(C(F)(F)F)cc2)nc1)[C@H](C)[C@](O)(Cn1cncn1)c1ccc(F)cc1F
-1.92

Request: [2H]C([2H])([2H])N(Cc1ccc(-c2ccc(Cl)cc2F)cc1F)[C@H](C)[C@](O)(Cn1cncn1)c1ccc(F)cc1F
-1.60

Request: CN(Cc1ccc(-c2ccc(-c3ccccc3)cc2)cn1)CC(O)(Cn1cncn1)c1ccc(F)cc1F (stereo not drawn)
-1.30

Request: [2H]C([2H])([2H])N(Cc1ccc(-c2ccc(Cl)cc2)cc1F)[C@H](C)[C@](O)(Cn1cncn1)c1ccc(F)cc1F
-1.92

----------
# System: Cryptococcus neoformans
# Experimental protocol: Antifungal activity against Cryptococcus neoformans CGMCC 2.3161 assessed as inhibition of visible growth
# Format: functional
Value kind: MIC80 (µg/mL)
Express your answer in µg/mL, writing the number without its unit.

CN(Cc1ccc(-c2ccc(C(C)(C)C)cc2)cn1)CC(O)(Cn1cncn1)c1ccc(F)cc1F (stereo not drawn) ... 0.012

Now for a further compound.
I have this compound here, CN(Cc1nc(-c2ccc(C(F)(F)F)cc2)cs1)CC(O)(Cn1cncn1)c1ccc(F)cc1F (stereo not drawn) , and I need its recorded MIC80.
0.2

----------
# Tested on: Nakaseomyces glabratus
# Experimental protocol: Antifungal activity against Clinical isolate Candida glabrata assessed as inhibition of visible growth
# Format: functional
Label true when MIC80 is strictly below 0.2 µg/mL; at or above that, label false.

Example cases with answers are listed next.
CN(Cc1nc(-c2ccc(C(F)(F)F)cc2)cs1)CC(O)(Cn1cncn1)c1ccc(F)cc1F (centres undefined) ... false
[2H]C([2H])([2H])N(Cc1ccc(-c2ccc(OC(F)(F)F)cc2)cc1F)[C@H](C)[C@](O)(Cn1cncn1)c1ccc(F)cc1F ... true
CN(Cc1ccc(-c2ccc(OC(F)(F)F)cc2)o1)CC(O)(Cn1cncn1)c1ccc(F)cc1F (centres undefined) ... true

In the record for [2H]C([2H])([2H])N(Cc1ccc(-c2ccc(Cl)cc2)cc1F)[C@H](C)[C@](O)(Cn1cncn1)c1ccc(F)cc1F , is MIC80 less than 0.2 µg/mL?
true

Request: CN(Cc1ccc(-c2ccc(C(F)(F)F)cc2)s1)CC(O)(Cn1cncn1)c1ccc(F)cc1F (centres undefined)
false

Request: [2H]C([2H])([2H])N(Cc1ccc(-c2ccc(Cl)cc2F)cc1)[C@H](C)[C@](O)(Cn1cncn1)c1ccc(F)cc1F
true

Request: CN(Cc1ccc(-c2ccc(Cl)cc2)cc1)CC(O)(Cn1cncn1)c1ccc(F)cc1F (centres undefined)
true

Request: CN(Cc1ccc(-c2ccc(Cl)cc2)nc1)CC(O)(Cn1cncn1)c1ccc(F)cc1F (centres undefined)
true
